# System: human melanoma cell line BLM
# measurement description: Spheroid invasion assay (migrastatic activity)
# Assay type: cell-based
# experimental setup: 10 µM, 24 h, BLM spheroids in collagen; DMSO control 1.02
value kind: rel. spheroid area

- compound: "COC(=O)[C@@]12C(=O)N[C@@H](Cc3ccccc3)[C@@H]1[C@H](C)[C@@](C)(O)[C@@H](O)[C@@H]2CCOCCc1ccc(Br)cc1 [Compound 23h]"
  assayed target: "human melanoma cell line BLM"
  readout value: 0.93
- compound: "COC(=O)[C@@]12C(=O)N[C@@H](Cc3ccccc3)[C@@H]1[C@H](C)[C@@](C)(O)[C@@H](O)[C@@H]2CCOCCc1ccccc1 [Compound 23a]"
  assayed target: "human melanoma cell line BLM"
  readout value: 1.01
- compound: "COC(=O)[C@@]12C(=O)N[C@@H](Cc3ccccc3)[C@@H]1[C@H](C)[C@@]1(C)O[C@H]1[C@@H]2CCOCCc1ccc(Br)cc1 [Compound 22h]"
  assayed target: "human melanoma cell line BLM"
  readout value: 0.98
- compound: "COC(=O)[C@@]12C(=O)N[C@@H](Cc3ccccc3)[C@@H]1[C@H](C)C(C)=C[C@@H]2CCOCCc1ccccc1 [Compound 17a]"
  assayed target: "human melanoma cell line BLM"
  readout value: 1.21
- compound: "COC(=O)[C@@]12C(=O)N[C@@H](Cc3ccccc3)[C@@H]1[C@H](C)C(C)=C[C@@H]2CCOCCc1ccc(OC)cc1 [Compound 17b]"
  assayed target: "human melanoma cell line BLM"
  readout value: 1.14
- compound: "C=C1[C@@H](C)[C@H]2[C@H](Cc3ccccc3)NC(=O)[C@]23OC(=O)/C=C/[C@H](O)CCC[C@@H](C)C/C=C/[C@H]3[C@@H]1O [CytB (1), cytochalasin B, reference compound]"
  assayed target: "human melanoma cell line BLM"
  readout value: 0.26
- compound: "C=C1[C@@H](C)[C@H]2[C@H](Cc3ccccc3)NC(=O)[C@@]2(C(=O)OC)[C@@H](CCOCCc2ccccc2)[C@@H]1OC(C)=O [Compound 27]"
  assayed target: "human melanoma cell line BLM"
  readout value: 0.89
